Test system: c-Abl (mouse);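 further: 11-residue human phosphosite peptides and single-mutation variants displayed on the E. coli surface, counted by deep sequencing, each peptide's frequency after selection divided by its frequency in the unselected input library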;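 further: frequency after pTyr selection over input frequency; kinase dosed for 20-30% of maximal phosphorylation in three min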
Test: phosphorylation enrichment, bacterial display (enrichment ratio); higher = better substrate or ligand; peptides without Tyr show the background
The entries below are paired with their reported phosphorylation enrichment.
The answer should be a number; do not append a unit.

The cases that follow already have their phosphorylation enrichment on record.
residues="AHLTEYLSTHF [UQCRC1_Y219_D215H_YF]" val=0.676
residues="PRSRSYSSTSI [REPS2_Y462]" val=0.932
residues="DTYDPYLDVAL [USP36_Y268]" val=0.859
residues="EGLKVYINGTL [ADGRD1_Y183_V184I]" val=0.8

Sure, the documented phosphorylation enrichment for GIFEDYVEGLR [MYL6_Y89_T85I_YF] is 0.857

Lab note: measured phosphorylation enrichment of RVNSAYQEKVS [ACAN_Y100_D102E] was 0.489

Recorded result, ADLLDYIKALN [HPRT1_Y81] , phosphorylation enrichment: 0.754

Note to self: phosphorylation enrichment recorded for LARDMDDKEFF [MET_Y1230_Y1230D_YF] was 0.464
